Kindly find below pKi information for Carbonic anhydrase 2 (Homo sapiens, UniProt P00918) taken from the literature.
pKi: −log10 of the molar value.

{"columns": ["Query Smiles", "pKi"],
 "data": [
  ["O=S1(=O)C=Cc2cc(-c3ccc(C(F)(F)F)cc3)ccc2O1", "< 5.00"],
  ["Cc1ncc([N+](=O)[O-])n1CCNS(C)(=O)=O", "< 4.70"],
  ["CCCN(CCC)S(=O)(=O)N(CCC)CCC", "< 3.70"],
  ["Cc1nn(-c2ccccc2)c2c1c(=O)oc1ccc(N)cc12", "< 5.00"]
]}

====

Literature Ki values, system: Carbonic anhydrase 2 (Homo sapiens, UniProt P00918).

{"columns": ["Compound", "Ki"],
 "data": [
  ["CCOC1Oc2ccccc2C(=O)/C1=C/Nc1ccc(S(=O)(=O)Nc2nc(C)cc(C)n2)cc1 (centres undefined)", "> 10 µM"],
  ["NS(=O)(=O)OC1CCCC1", "> 10 µM"],
  ["NS(=O)(=O)Oc1ccc(NC2=NC(=O)/C(=C\\c3ccc(F)cc3)S2)cc1", "0.0287 to 0.0843 µM"],
  ["CC(C(=O)NO)N(Cc1ccccc1)S(=O)(=O)C(F)(F)C(F)(F)C(F)(F)C(F)(F)F (centres undefined)", "0.092 µM"],
  ["Cc1cc(=O)oc2cc(O[C@@H]3O[C@H](CO)[C@@H](O)[C@H](O)[C@H]3O)ccc12", "> 100 µM"],
  ["CC(=O)c1c(O)c2cc(Br)ccc2oc1=O", "> 10 µM"],
  ["C#CCOc1ccc2ccc(=S)oc2c1", "> 100 µM"],
  ["NS(=O)(=O)c1ccc(Nc2nc(NCC(=O)O)nc(NCC(=O)O)n2)cc1", "0.376 µM"],
  ["c1ccc2c(c1)c1c(n2Cc2ccc(Cn3c4c(c5ccccc53)CCCC4)cc2)CCCC1", "0.25 µM"],
  ["NS(=O)(=O)c1ccc(Nc2ccnc(NS(=O)(=O)c3c(F)c(F)cc(F)c3F)n2)cc1", "0.013 µM"],
  ["Cn1nc(S(N)(=O)=O)s/c1=N/S(=O)(=O)c1cccc(C(=O)O)c1", "0.0059 µM"],
  ["CCOc1ccc(S(=O)(=O)N2CCN(C)CC2)cc1-c1nnc2c(n1)c(C)nn2-c1ccc(S(=O)(=O)N2CCN(C)CC2)cc1", "> 50 µM"],
  ["CCCCOS(N)(=O)=O", "0.07 µM"],
  ["NS(=O)(=O)c1ccc(N/C(S)=N\\CCCC(=O)O)cc1", "0.011 µM"],
  ["NS(=O)(=O)Oc1ccc(OS(N)(=O)=O)cc1", "0.643 µM"],
  ["NS(=O)(=O)c1ccc(C(=O)N2CCN(C(=O)c3ccc([N+](=O)[O-])cc3)CC2)cc1", "0.0239 µM"],
  ["O=C(CN(Cc1ccccc1)S(=O)(=O)c1c(F)c(F)c(F)c(F)c1F)NO", "0.036 µM"],
  ["O=c1cc(-c2ccccc2)c2ccc(O)cc2o1", "> 10 µM"],
  ["CC1=NN(c2ccc(C)cc2)C(=O)/C1=N/Nc1cccc(S(N)(=O)=O)c1", "0.186 µM"],
  ["CCOC(=O)c1ccc(NC(=O)CS(=O)(=O)c2ccccc2)cc1", "> 100 µM"],
  ["COc1ccccc1N1CCN(C(=S)SCC(=O)Nc2nc3ccc(S(N)(=O)=O)cc3s2)CC1", "0.0515 µM"],
  ["Cc1cc(C)cc(NC(=O)Nc2ccc3c(C)cc(=O)oc3c2)c1", "> 200 µM"],
  ["NS(=O)(=O)c1ccc(NSC(=S)N2CCOCC2)c(I)c1", "0.055 µM"],
  ["CCOc1ccc(S(=O)(=O)NCCO)cc1-c1nnc2c(n1)c(C)nn2-c1ccc(C)cc1", "> 50 µM"],
  ["O=C(CNOCc1ccccc1)NO", "94 µM"],
  ["CC(=O)OC[C@H]1O[C@@H]([Se]c2ccc(NC(=S)Nc3ccc(S(N)(=O)=O)cc3)cc2)[C@H](OC(C)=O)[C@@H](OC(C)=O)[C@H]1OC(C)=O", "0.0066 µM"],
  ["CCCOc1ccc2ccc(=O)oc2c1C(C)=O", "> 100 µM"],
  ["NS(=O)(=O)c1ccc(C[Se]c2ccc(NC(=O)CN3C(=O)NC4(CCCCCC4)C3=O)cc2)cc1", "0.0228 µM"],
  ["O=C(/C=C(\\O)C(=O)O)/C=C/c1ccc(NC(=O)c2ccccc2)cc1", "5.03 µM"]
]}

====

Literature survey of pKi (system: Carbonic anhydrase 2 (Homo sapiens)).
pKi: −log10 of the molar value.

{"columns": ["Molecule", "Measured On", "pKi"],
 "data": [
  ["NS(=O)(=O)c1ccc(NC(=O)/C(Cl)=N/Nc2ccccc2)cc1", "Carbonic anhydrase 2 (Homo sapiens)", 7.39],
  ["O=C(Nc1ccc2c(c1)C(=O)NS2(=O)=O)c1ccc(-c2ccccc2)cc1", "Carbonic anhydrase 2 (Homo sapiens)", 7.08],
  ["CC1(C)O[C@@H]2[C@@H](CO[C@@]3(COC(=O)NS(N)(=O)=O)OC(C)(C)O[C@@H]23)O1", "Carbonic anhydrase 2 (Homo sapiens)", 7.62],
  ["NS(=O)(=O)c1ccc(/N=C\\c2ncc[nH]2)cc1", "Carbonic anhydrase 2 (Homo sapiens)", 6.92],
  ["CCCC(CCC)C(=O)/N=c1/sc(S(N)(=O)=O)nn1C", "Carbonic anhydrase 2 (Homo sapiens)", 8.00],
  ["CC(=O)N1N=C(c2ccc(C)cc2)CC1c1cccc(OS(N)(=O)=O)c1 (configuration not stated)", "Carbonic anhydrase 2 (Homo sapiens)", 7.60],
  ["NS(=O)(=O)c1ccc(N2C(=O)c3c(Br)c(Br)c(Br)c(Br)c3C2=O)cc1", "Carbonic anhydrase 2 (Homo sapiens)", 7.17]
]}

====

Ki values for UniProt P00918 compiled from several publications are listed below.

{"columns": ["Query Smiles", "Comparator", "Ki / nM"],
 "data": [
  ["C[C@H](CCC(=O)Nc1ccc(S(N)(=O)=O)cc1Cl)[C@H]1CC[C@H]2[C@@H]3[C@H](O)C[C@@H]4C[C@H](O)CC[C@]4(C)[C@H]3CC[C@]12C", "=", 80],
  ["N/C(=N\\S(=O)(=O)c1ccccc1SCc1cccc(C(F)(F)F)c1)NNc1nc(Cl)nc(Nc2ccc(S(N)(=O)=O)cc2)n1", "=", 7.4],
  ["COc1cc2ccc(=O)oc2cc1O[C@@H]1O[C@H](CO)[C@@H](O)[C@H](O)[C@H]1O", ">", 100000],
  ["CC(=O)OC[C@H]1O[C@@H](SNCc2ccc(S(N)(=O)=O)cc2)[C@H](OC(C)=O)[C@@H](OC(C)=O)[C@@H]1OC(C)=O", "=", 14.8],
  ["O=C1Nc2c(ccc3ccccc23)S(=O)(=O)N1", "=", 484],
  ["O=c1ccc2ccc(OCCF)cc2o1", ">", 200000]
]}

====

Dear all, I have gathered published Ki values for Carbonic anhydrase 2 (Homo sapiens, UniProt P00918); the list follows.

{"columns": ["Query Smiles", "Ki"],
 "data": [
  ["O=C(O)c1ccc(N2C(=O)c3ccc([N+](=O)[O-])cc3C2=O)cc1", "> 1 µM"],
  ["COc1c(O)ccc2ccc(=O)oc12", "> 100 µM"],
  ["Cc1c(-c2nn(-c3ccccc3)cc2/C=N/O)nnn1-c1ccc(Cl)cc1", "> 100 µM"],
  ["CC(C)(C)OC(=O)N(CCCN(CCNC(=O)C(F)(F)F)C(=O)OC(C)(C)C)CCNC(=O)C(F)(F)F", "> 500 µM"]
]}

====

Note to self: these molecules have pKi reported for Carbonic anhydrase 2 (Homo sapiens, UniProt P00918) in various publications.
pKi: −log10 of the molar value.
Parameter Measured: pKi

{"columns": ["Molecule", "Comparator", "Data Value"],
 "data": [
  ["CC(=O)c1c(O)c2ccccc2oc1=O", "<", 5.00],
  ["CCOC(=O)c1ccc(O)c(O)c1", "=", 6.21],
  ["COc1cc(C(=O)O)cc(OC)c1O", "=", 5.50],
  ["CCCCCCO[C@H]1CCN(S(=O)(=O)c2ccc(Cl)cc2)[C@H]1C(=O)NO", "<", 4.00],
  ["Cc1c(CC(=O)Nc2ccc(S(N)(=O)=O)cc2)c(=O)oc2cc3occ(-c4ccc(Cl)cc4)c3cc12", "=", 7.26],
  ["CC1(C)OB(c2ccc(C(=O)NCc3ccc(S(N)(=O)=O)cc3)cc2)OC1(C)C", "=", 8.27],
  ["CCCCc1cc(-c2ccccc2)cc(-c2ccccc2)[n+]1Cc1ccc(S(N)(=O)=O)cc1", "=", 6.23],
  ["NS(=O)(=O)c1ccc(-c2cccc(C=O)c2)cc1", "=", 8.68],
  ["NS(=O)(=O)c1ccc(NCc2cc(=O)oc3cc(Cl)ccc23)c(I)c1", "=", 7.44],
  ["CC(C)C(C(=O)NO)N(Cc1ccccc1)S(=O)(=O)C(F)(F)C(F)(F)C(F)(F)C(F)(F)F (stereo unspecified)", "=", 6.97],
  ["NS(=O)(=O)NCc1ccccc1", "=", 6.92],
  ["COC(=O)[C@H](C)NS(=O)(=O)N[C@@H](C)C(=O)OC", "<", 3.70],
  ["S=c1ccc2ccccc2s1", "<", 4.00],
  ["COC(=O)[C@H](Cc1ccccc1)NS(=O)(=O)NCC(C)C", "=", 5.07],
  ["CCCN(CCC)S(=O)(=O)c1ccc(C(=O)NCCN(CC)CC)cc1", "<", 5.00],
  ["Cc1nn(C)c2nnc(Nc3ccc(S(=O)(=O)N4CCCCC4)cc3)nc12", "=", 6.31]
]}
